Sourced from patent EP4596580A1

Catalogue of EC50 values
ASSAYED_TARGET: T1, His-cynomolgus monkey LIGHT (cynomolgus monkey)
T1 construct: also called His-cynoLIGHT
T1 chain: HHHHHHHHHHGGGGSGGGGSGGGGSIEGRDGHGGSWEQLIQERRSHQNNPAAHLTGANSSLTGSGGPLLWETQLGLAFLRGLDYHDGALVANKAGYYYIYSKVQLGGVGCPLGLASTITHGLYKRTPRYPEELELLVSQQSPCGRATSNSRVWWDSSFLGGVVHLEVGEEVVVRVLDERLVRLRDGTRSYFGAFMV
METHOD_DESCRIPTION: ELISA, His-cynoLIGHT coated
Reply with just the number (in pM).

INSERT INTO assay_data (binder, output_unit, reported_value) VALUES
  ('hum_LT-m37-15 (antibody, human IgG4, V domains shown, humanized from LT-m37) VH: QVQLVQSGAEVKKPGASVKVSCKASGYSFTGYFINWVRQAPGQGLEWIGRIYPYNVDTFYNQNFKGRATMTADKSTSTAYMELSSLRSEDTAVYYCGRGTHYYGSSGAMDYWGQGTLVTVSS VL: EIVLTQSPATLSVSPGERATLSCKASQNVGTAVAWYQQKPGQSPRLLIYSASNRYTGIPARFSGSGSGTEFTLTISSLQSEDFAVYYCQQYSSYPYTFGGGTKVEIK', 'pM', 130);

For the next question, use this binder.
Enquiry: Would you kindly share the measured EC50 for hum_LT-m37-13 (antibody, human IgG4, V domains shown, humanized from LT-m37) VH: QVQLVQSGAEVKKPGASVKVSCKASGYSFTGYFINWVRQAPGQGLEWIGRIYPYNVDTFYNQNFKGRVTMTADKSTSTAYMELSSLRSEDTAVYYCGRGTHYYGSSGAMDYWGQGTLVTVSS VL: EIVLTQSPATLSVSPGERATLSCKASQNVGTAVAWYQQKPGQSPRLLIYSASNRYTGIPARFSGSGSGTEFTLTISSLQSEDFAVYFCQQYSSYPYTFGGGTKVEIK ?
Return: 104
